I'd be grateful if you could share measured growth inhibition for these entries.
Run Description: NCI Yeast Anticancer Drug Screen. Data for the sgs1 mgt1 strain (AID 161);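 also: 0% = growth of cultures given vehicle only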
Details: S. cerevisiae sgs1 mgt1 strain, at 50.0 µM, stronger effect = higher value
Compounds without any hit were thinned out: in the full panel of roughly 79,000, 15% have a hit.
Answers are plain numbers, in %.

Check out these entries, answers already filled in.
Query :: Entry under review: O=[N+]([O-])c1ccccc1SCc1ccccc1 . Reported growth inhibition?
Result :: 54.7

Query :: Entry under review: CCCCCCCCCCCC[N+]1(C)CCCC1c1cccnc1 (stereo unspecified) . Reported growth inhibition?
Result :: 51.9

Query :: Entry under review: CCCN1CN(C(C(=O)N[C@@H]2C(=O)N3C(C(=O)O)=C(C)CSC23)c2ccccc2)CSC1=S (stereo partly specified) . Reported growth inhibition?
Result :: -3.25

Query :: Entry under review: CCOC(=O)C1(C#N)C(=O)CSC1=Nc1ccccc1Cl (stereo unspecified) . Reported growth inhibition?
Result :: 25

Query :: Entry under review: FC(F)(F)c1cc(NC(=S)SC2CCCCC2)ccc1Cl . Reported growth inhibition?
Result :: 88

For each of the compounds below, state growth inhibition.
1. CCN(CC)c1c(C(=O)/C=C/c2ccc(F)cc2)c(-c2ccccc2)nn(C)c1=O
2. CCCCCCCN=C(N)c1ccc(C(=O)OC2CCCCC2)cc1
3. Clc1ccc(-c2nnn3ccccc23)cc1

Result ::
70.5
99
95.8

###

Run Description: NCI Yeast Anticancer Drug Screen. Data for the cln2 rad14 strain (AID 165);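 also: 0% = growth equal to vehicle treated cultures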
Details: S. cerevisiae cln2 rad14 strain, at 5.0 µM (retest, dose inferred, filed as 0.5), stronger effect = higher value
The panel holds about 79,000 compounds, 15% with a hit somewhere; the sample as a whole holds those more often.
Quantity: growth inhibition (%)
Numbers only, in %.

Check out these entries, answers already filled in.
Query :: Entry under review: CCCCCCOC(=O)COc1ccccc1 . Reported growth inhibition?
Result :: 5

Query :: Entry under review: COC(=O)C1(Cc2ccc(C)cc2)Cc2c(C)cccc2C1=O (stereo unspecified) . Reported growth inhibition?
Result :: 6

Query :: Entry under review: CCC1CCCN1CCOC(=O)C(c1ccccc1)C1C=CCC1 (stereo unspecified) . Reported growth inhibition?
Result :: 32

Query :: Entry under review: CC1CN(CCCN2c3ccccc3Sc3ccc(Cl)cc32)C(C)(C)C1 (stereo unspecified) . Reported growth inhibition?
Result :: 10

Query :: Entry under review: O=[n+]1c2c(n([O-])c3ccc4ccccc4c31)-c1cccc3cccc-2c13 . Reported growth inhibition?
Result :: 3

For each of the compounds below, state growth inhibition.
1. CC(=O)/C(=C\c1ccco1)C(=O)Nc1ccccc1
2. O=C(Nc1ccccc1)OCCN=c1c2ccccc2ccc2ccccc12
3. O=C(NCCCCCCNC(=O)n1cc(F)c(=O)[nH]c1=O)NC1C(O)OC(CO)C(O)C1O (stereo unspecified)
4. C=CC(=O)Nc1ccccc1CC(c1c[nH]c2ccccc12)c1c[nH]c2ccccc12
5. Cc1cccc(Cl)c1NC(=O)/C=C/c1ccccc1
6. COc1cccc2c1C(=O)c1c(O)c3c(c(O)c1C2=O)C[C@@](O)(/C(C)=N\NC=O)C[C@@H]3OC1CC(N)C(O)C(C)O1 (stereo partly specified)

Result ::
[6, -15, 34, 12, 29, 8]
